Tested on: NCI-H292 lung cancer cells
test details: FDA drug screening, complete media vs cholesterol-free media with simvastatin (TABLE 2)
Type: cell-based, human
condition: NCI-H292 cells, complete media; FDA drug library screen (TABLE 2)
Structures can show the parent of a compound that is named as a salt.
Item-by-item account of Complete Media
recorded metric: Complete Media

>>> print(df.to_string())
                                   compound                 test_target  assay_value
0  CC[C@H]1[C@@H]2C[C@H]3[C@@H]4N(C)c5ccccc5[C@]45C[C@@H]([C@H]2[C@H]5O)N3[C@@H]1O  NCI-H292 lung cancer cells        1.333
1  C[C@H](NCc1ccc(OCc2cccc(F)c2)cc1)C(N)=O [Safinamide]  NCI-H292 lung cancer cells        1.012
2  C[C@]1(COc2ccc(N3CCC(Oc4ccc(OC(F)(F)F)cc4)CC3)cc2)Cn2cc([N+](=O)[O-])nc2O1  NCI-H292 lung cancer cells        1.345
3     O=C(CCCN1CCN(c2ccccn2)CC1)c1ccc(F)cc1  NCI-H292 lung cancer cells       0.9983
4  O=C1[C@H]2CCCC[C@H]2C(=O)N1CCCCN1CCN(c2nsc3ccccc23)CC1  NCI-H292 lung cancer cells       0.9329
5  Cc1c(-c2ccccc2)oc2c(C(=O)OCCN3CCCCC3)cccc2c1=O [Flavoxate (hydrochloride)]  NCI-H292 lung cancer cells       0.8849
6  COC(=O)Nc1nc2cc(C(=O)c3ccc(F)cc3)ccc2[nH]1  NCI-H292 lung cancer cells        1.079
7  [H]/N=C(\N/C(=N/[H])NCCCCCCNC(=N)NC(=N)Nc1ccc(Cl)cc1)Nc1ccc(Cl)cc1 [Chlorhexidine (digluconate)]  NCI-H292 lung cancer cells       0.9694
